# credit: the Immune Epitope Database (IEDB)

# TARGET_UNDER_TEST: HLA-A*23:01
# TEST_DETAILS: IEDB peptide-MHC binding, purified MHC/competitive/radioactivity; filed as Kd, often an IC50 or EC50 that approximates it; bounds were set here for any values at or beyond the usual limits of such assays
# SETUP_CONDITIONS: source organism: SARS coronavirus Tor2
Listing of entries alongside the reported pKd.
Quick note: pKd means taking -log10 of the concentration in moles per liter.

Illustrative cases are given below, each with its answer.
# SEQUENCE_ENTRY, pKd
measured = [
    ("YYCKSHKPPI", 6.68),
    ("VFNNYMPYVF", 8.08),
    ("LFTKFFYLL", 6.81),
]

Ask | Bench note: what pKd did "FFASFYYIW" show?
Reply | 6.75

---

# TARGET_UNDER_TEST: HLA-B*40:01
# TEST_DETAILS: IEDB peptide-MHC binding, purified MHC/direct/fluorescence; filed as Kd, often an IC50 or EC50 that approximates it; bounds were set here for any values at or beyond the usual limits of such assays
# SETUP_CONDITIONS: source organism: SARS-CoV1
ASSAY_ENDPOINT: Kd (µM)
Reply with just the number (in µM).

Ask | Bench note: what Kd did "VQQESSFVM" show?
Reply | 7.46

---

# TARGET_UNDER_TEST: HLA-A*02:11
# TEST_DETAILS: IEDB peptide-MHC binding, purified MHC/direct/fluorescence; filed as Kd, often an IC50 or EC50 that approximates it; bounds were set here for any values at or beyond the usual limits of such assays
# SETUP_CONDITIONS: source organism: Yersinia enterocolitica subsp. enterocolitica 8081
ASSAY_ENDPOINT: pKd
Quick note: pKd means taking -log10 of the concentration in moles per liter.

Ask | Requested read-out pKd, target or system HLA-A*02:11, entry "FLRFGDFKL"
Reply | 6.98

---

# TARGET_UNDER_TEST: HLA-A*23:01
# TEST_DETAILS: IEDB peptide-MHC binding, purified MHC/competitive/radioactivity; filed as Kd, often an IC50 or EC50 that approximates it; bounds were set here for any values at or beyond the usual limits of such assays
# SETUP_CONDITIONS: source organism: Mammarenavirus whitewaterense
ASSAY_ENDPOINT: pKd
Quick note: pKd means taking -log10 of the concentration in moles per liter.

Ask | Requested read-out pKd, target or system HLA-A*23:01, entry "CSYKIGHHV"
Reply | 4.76

---

# TARGET_UNDER_TEST: HLA-B*40:01
# TEST_DETAILS: IEDB peptide-MHC binding, purified MHC/competitive/fluorescence; filed as Kd, often an IC50 or EC50 that approximates it; bounds were set here for any values at or beyond the usual limits of such assays
# SETUP_CONDITIONS: source organism: Yersinia pestis Nepal516
ASSAY_ENDPOINT: Kd (µM)
Reply with just the number (in µM).

Ask | Requested read-out Kd, target or system HLA-B*40:01, entry "TQFGVPFVL"
Reply | 0.205

---

# TARGET_UNDER_TEST: HLA-B*44:02
# TEST_DETAILS: IEDB peptide-MHC binding, purified MHC/competitive/radioactivity; filed as Kd, often an IC50 or EC50 that approximates it; bounds were set here for any values at or beyond the usual limits of such assays
# SETUP_CONDITIONS: source organism: SARS coronavirus Tor2
ASSAY_ENDPOINT: Kd (nM)
Reply with just the number (in nM).

Illustrative cases are given below, each with its answer.
# SEQUENCE_ENTRY, Kd, nM
data = [
    ("TEIEPKLDG", 17900),
    ("KEQYCALSPG", 2610),
]

The record that follows has no Kd shown yet.
Ask | Bench note: what Kd did "HEGHQTAAF" show?
Reply | 1120

---

# TARGET_UNDER_TEST: HLA-A*32:01
# TEST_DETAILS: IEDB peptide-MHC binding, purified MHC/competitive/radioactivity; filed as Kd, often an IC50 or EC50 that approximates it; bounds were set here for any values at or beyond the usual limits of such assays
# SETUP_CONDITIONS: source organism: Mammarenavirus juninense
ASSAY_ENDPOINT: pKd
Quick note: pKd means taking -log10 of the concentration in moles per liter.

Ask | Bench note: what pKd did "IAMGYVVSSF" show?
Reply | 6.00

---

# TARGET_UNDER_TEST: HLA-B*27:05
# TEST_DETAILS: IEDB peptide-MHC binding, purified MHC/competitive/fluorescence; filed as Kd, often an IC50 or EC50 that approximates it; bounds were set here for any values at or beyond the usual limits of such assays
# SETUP_CONDITIONS: source organism: Pseudomonas aeruginosa UCBPP-PA14
ASSAY_ENDPOINT: Kd

Ask | Bench note: what Kd did "FLDDASNSA" show?
Reply | ≥ 20 µM

---

# TARGET_UNDER_TEST: HLA-B*15:01
# TEST_DETAILS: IEDB peptide-MHC binding, purified MHC/competitive/fluorescence; bounds were set here for any values at or beyond the usual limits of such assays
# SETUP_CONDITIONS: source organism: Variola virus
ASSAY_ENDPOINT: pIC50
Quick note: pIC50 means taking -log10 of the concentration in moles per liter.

# SEQUENCE_ENTRY, ASSAY_ENDPOINT, ASSAY_VALUE
measured = [
    ("SMFLMTATL", "pIC50", 5.95),
]

The record that follows has no pIC50 shown yet.
Ask | Requested read-out pIC50, target or system HLA-B*15:01, entry "VGRVNPGTY"
Reply | 4.53

---

# TARGET_UNDER_TEST: HLA-B*07:02
# TEST_DETAILS: IEDB peptide-MHC binding, purified MHC/direct/fluorescence; filed as Kd, often an IC50 or EC50 that approximates it; bounds were set here for any values at or beyond the usual limits of such assays
# SETUP_CONDITIONS: source organism: Pseudomonas putida
ASSAY_ENDPOINT: Kd

Ask | Bench note: what Kd did "DLSNSMRDF" show?
Reply | ≥ 20 µM

---

# TARGET_UNDER_TEST: HLA-A*31:01
# TEST_DETAILS: IEDB peptide-MHC binding, purified MHC/direct/fluorescence; filed as Kd, often an IC50 or EC50 that approximates it; bounds were set here for any values at or beyond the usual limits of such assays
# SETUP_CONDITIONS: source organism: Mycobacterium tuberculosis C
ASSAY_ENDPOINT: Kd

Ask | Requested read-out Kd, target or system HLA-A*31:01, entry "FPRYPLNVL"
Reply | ≥ 20 µM

---

# TARGET_UNDER_TEST: HLA-B*15:17
# TEST_DETAILS: IEDB peptide-MHC binding, purified MHC/direct/fluorescence; filed as Kd, often an IC50 or EC50 that approximates it; bounds were set here for any values at or beyond the usual limits of such assays
# SETUP_CONDITIONS: source organism: Lake Victoria marburgvirus - Popp
ASSAY_ENDPOINT: Kd (nM)
Reply with just the number (in nM).

Ask | Bench note: what Kd did "FLMRNAIQY" show?
Reply | 157

---

Listing of entries alongside the reported Kd.
# TARGET_UNDER_TEST: HLA-B*07:02
# TEST_DETAILS: IEDB peptide-MHC binding, purified MHC/competitive/radioactivity; filed as Kd, often an IC50 or EC50 that approximates it; bounds were set here for any values at or beyond the usual limits of such assays
# SETUP_CONDITIONS: source organism: Triticum aestivum

# SEQUENCE_ENTRY, Kd
rows = [
    ("QPFPSQQPY", "≥ 77.5 µM"),
    ("QPQEQVPLV", "≥ 77.5 µM"),
    ("QPQQLPQFEEI", "≥ 64 µM"),
]

Ask | Requested read-out Kd, target or system HLA-B*07:02, entry "VPLVQQQQFL"
Reply | 8.75 µM

---

# TARGET_UNDER_TEST: HLA-A*33:01
# TEST_DETAILS: IEDB peptide-MHC binding, purified MHC/competitive/radioactivity; filed as Kd, often an IC50 or EC50 that approximates it; bounds were set here for any values at or beyond the usual limits of such assays
# SETUP_CONDITIONS: source organism: Mammarenavirus brazilense
ASSAY_ENDPOINT: Kd

Ask | Bench note: what Kd did "YVNHTASGEH" show?
Reply | ≥ 69 µM

---

# TARGET_UNDER_TEST: HLA-A*02:06
# TEST_DETAILS: IEDB peptide-MHC binding, purified MHC/competitive/fluorescence; filed as Kd, often an IC50 or EC50 that approximates it; bounds were set here for any values at or beyond the usual limits of such assays
# SETUP_CONDITIONS: source organism: Vibrio vulnificus YJ016
Listing of entries alongside the reported Kd.
Reply with just the number (in µM).

# SEQUENCE_ENTRY, TARGET_UNDER_TEST, ASSAY_VALUE
rows = [
    ("LLRRRPYPL", "HLA-A*02:06", 2.04),
]

Ask | Bench note: what Kd did "RQIQGIAAF" show?
Reply | 0.0133
